- assay-protocol: Cytotoxicity against human HPLF cells after 48 hrs
- Assay type: cell-based
assay-readout: CC50 at 48 h

# compound, observed-result
records = [
    ("Cc1c(C(=O)/C=C/c2ccc(Br)cc2)[n+]([O-])c2ccccc2[n+]1[O-]", "26 µM"),
    ("COc1cc(/C=C/C(=O)c2c(C)[n+]([O-])c3ccccc3[n+]2[O-])cc(OC)c1OC", "33 µM"),
    ("Cc1c(C(=O)/C=C/c2ccc(F)cc2)[n+]([O-])c2ccccc2[n+]1[O-]", "20 µM"),
    ("Cc1c(C(=O)/C=C/c2cccc([N+](=O)[O-])c2)[n+]([O-])c2ccccc2[n+]1[O-]", "18 µM"),
    ("COc1ccc(/C=C/C(=O)c2c(C)[n+]([O-])c3ccccc3[n+]2[O-])cc1OC", "156 µM"),
]

[ask] Query: CC50 at 48 h; subject: "Cc1c(C(=O)/C=C/c2ccccc2)[n+]([O-])c2ccccc2[n+]1[O-]"
[reply] 35 µM

[ask] What about CC(=O)c1c(C)[n+]([O-])c2ccccc2[n+]1[O-] [MEQUINDOX] ?
[reply] > 400 µM

[ask] What about "Cc1c(C(=O)/C=C/c2ccc3c(c2)OCO3)[n+]([O-])c2ccccc2[n+]1[O-]" ?
[reply] 72 µM

[ask] What about "COc1ccc(/C=C/C(=O)c2c(C)[n+]([O-])c3ccccc3[n+]2[O-])cc1" ?
[reply] 93 µM

[ask] What about "Cc1c(C(=O)/C=C/c2ccc([N+](=O)[O-])cc2)[n+]([O-])c2ccccc2[n+]1[O-]" ?
[reply] 91 µM

Values compiled from ChEMBL document CHEMBL1137767.
